System: S. epidermidis
Assay: Broth dilution MIC/MBC, BT-antibiotic combinations
Type: cell-based, Staphylococcus epidermidis
Conditions: S. epidermidis ATCC 35984; BisEDT 0.0 μg/ml

compound	MIC, µg/mL
CN(C)c1ccc(O)c2c1C[C@H]1C[C@H]3[C@H](N(C)C)C(O)=C(C(N)=O)C(=O)[C@@]3(O)C(O)=C1C2=O [Minocycline, minocycline]	0.13
CCC[C@@H]1C[C@@H](C(=O)N[C@@H]([C@H]2O[C@H](SC)[C@H](O)[C@@H](O)[C@H]2O)[C@H](C)Cl)N(C)C1 [Clindamycin, clindamycin]	2048.00
CO[C@H]1/C=C/O[C@@]2(C)Oc3c(C)c(O)c4c(O)c(c(/C=N/N5CCN(C)CC5)c(O)c4c3C2=O)NC(=O)/C(C)=C\C=C\[C@H](C)[C@H](O)[C@@H](C)[C@@H](O)[C@@H](C)[C@H](OC(C)=O)[C@@H]1C [Rifampin]	0.021
CCOc1ccc2ccccc2c1C(=O)N[C@@H]1C(=O)N2[C@@H]1SC(C)(C)[C@@H]2C(=O)O [Nafcillin]	16.00
